- ASSAYED_SYSTEM: T1, human beta CGRP (SEQ ID NO: 81) (human, not fully specified)
- T1 peptide: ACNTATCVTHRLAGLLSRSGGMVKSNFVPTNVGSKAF
- EXPERIMENT_NOTES: cell-based or functional assay
Entries and their measured IC50, CGRP-induced cAMP production, SK-N-MC cells follow.
READOUT_NAME: IC50, CGRP-induced cAMP production, SK-N-MC cells (nM)

BINDER: lipocalin mutein SEQ ID NO: 14 (designed binder, biotinylated by NHS chemistry for capture in SPR) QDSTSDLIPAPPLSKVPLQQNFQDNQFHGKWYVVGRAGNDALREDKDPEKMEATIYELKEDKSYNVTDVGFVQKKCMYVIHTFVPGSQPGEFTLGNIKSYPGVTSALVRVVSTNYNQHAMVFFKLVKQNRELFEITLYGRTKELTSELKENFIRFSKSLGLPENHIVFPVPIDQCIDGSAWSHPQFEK
OBSERVED: 1.5
--
BINDER: lipocalin mutein SEQ ID NO: 19 (designed binder, biotinylated by NHS chemistry for capture in SPR) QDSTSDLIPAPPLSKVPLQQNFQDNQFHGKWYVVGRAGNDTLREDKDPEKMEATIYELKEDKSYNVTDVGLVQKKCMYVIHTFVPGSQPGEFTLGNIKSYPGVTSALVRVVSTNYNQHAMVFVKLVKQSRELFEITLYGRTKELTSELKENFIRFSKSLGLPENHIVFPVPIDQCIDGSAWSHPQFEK
OBSERVED: 0.21
--
BINDER: lipocalin mutein SEQ ID NO: 18 (designed binder) QDSTSDLIPAPPLSKVPLQQNFQDNQFHGKWYVVGRAANDVLRDDNDPEKMEATIYELKEDKSYNVTDVGFVQKKCMYVVHTFVPGSQPGEFTLGNIKSYPGVTSALVRVVSTNYNQHAMVFFKLVKQNRELFEVTLYGRTKELTSELKENFIRFSKSLGLPENHIVFPVPIDQCIDGSAWSHPQFEK
OBSERVED: 0.29
--
BINDER: lipocalin mutein SEQ ID NO: 20 (designed binder, biotinylated by NHS chemistry for capture in SPR) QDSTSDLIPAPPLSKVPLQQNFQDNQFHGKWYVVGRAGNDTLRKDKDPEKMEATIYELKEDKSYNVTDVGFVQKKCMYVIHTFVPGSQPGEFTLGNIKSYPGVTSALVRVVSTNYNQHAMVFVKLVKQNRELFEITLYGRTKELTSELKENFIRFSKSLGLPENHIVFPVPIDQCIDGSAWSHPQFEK
OBSERVED: 0.17
--
BINDER: lipocalin mutein SEQ ID NO: 27 (designed binder, biotinylated by NHS chemistry for capture in SPR) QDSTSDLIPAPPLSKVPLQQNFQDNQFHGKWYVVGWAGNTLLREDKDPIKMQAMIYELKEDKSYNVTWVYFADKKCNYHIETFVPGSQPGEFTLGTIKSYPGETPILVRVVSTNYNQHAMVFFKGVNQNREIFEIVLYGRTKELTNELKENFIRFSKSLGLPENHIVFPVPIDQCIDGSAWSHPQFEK
OBSERVED: 0.12
--
BINDER: lipocalin mutein SEQ ID NO: 24 (designed binder, biotinylated by NHS chemistry for capture in SPR) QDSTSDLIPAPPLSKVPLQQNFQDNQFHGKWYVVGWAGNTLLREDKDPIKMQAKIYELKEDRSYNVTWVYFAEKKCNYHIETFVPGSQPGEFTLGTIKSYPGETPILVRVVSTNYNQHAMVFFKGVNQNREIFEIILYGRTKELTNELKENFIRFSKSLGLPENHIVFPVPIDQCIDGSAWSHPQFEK
OBSERVED: 0.19
--
BINDER: lipocalin mutein SEQ ID NO: 11 (designed binder, biotinylated by NHS chemistry for capture in SPR) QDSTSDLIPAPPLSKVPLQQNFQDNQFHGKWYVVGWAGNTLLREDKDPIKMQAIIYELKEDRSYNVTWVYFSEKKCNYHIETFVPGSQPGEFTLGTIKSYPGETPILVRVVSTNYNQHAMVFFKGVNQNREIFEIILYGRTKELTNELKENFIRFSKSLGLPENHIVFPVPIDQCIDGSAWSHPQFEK
OBSERVED: 0.22
